Test system: UO-31 renal
PROTOCOL SUMMARY: NCI-60 one-dose screen, 48 h (100 = growth as untreated, 0 = no growth, -100 = all killed)
MEASUREMENT CONDITIONS: 10 µM unless noted
This is part of a sample that, as a whole, favours compounds with a hit. Of some 83,000 tested, about 20% had one in any assay. Calls of active or inactive are those of the source. The calls were made as follows: active = growth percent below 10; inactive = the rest.
TEST READOUT: growth

Example molecules with recorded growth:
- MOLECULE: "O=S(=O)(c1cccc(NC2=Nc3cccc4cccc2c34)c1)N1CCCC1"
  growth: "67.5% (inactive)"
- MOLECULE: "S=c1[nH]cccc1-c1nnc2n1Nc1nc3ccc(Cl)cc3cc1CS2"
  growth: "79.6% (inactive)"
- MOLECULE: "Cn1/c(=N/NC(N)=S)ccc2ccccc21"
  growth: "62.7% (inactive)"
- MOLECULE: "CCCC/C(=N\\N=C(N)N)c1ccc(F)cc1"
  growth: "45.3% (inactive)"
- MOLECULE: "N#CSCC1CC(O)(c2ccccc2)C(c2ccccc2)C(c2ccc(F)cc2)O1 (stereo unspecified)"
  growth: "11.2% (inactive)"
- MOLECULE: "CCc1c(Nc2ccc(C)cc2)[nH]c(N)nc1=S"
  growth: "91.5% (inactive)"
- MOLECULE: "CC(C)Cc1ccc(C(C)C(=O)NCc2c[nH]c3ccc(Cl)cc23)cc1 (stereo unspecified)"
  growth: "65.4% (inactive)"
- MOLECULE: "COc1ccc(-c2nc(N/N=C/c3c[nH]c4ccccc34)nc(N3CCOCC3)c2C#N)cc1"
  growth: "63.7% (inactive)"

Query: Give reported growth value for COc1ccc(C(O)c2cc3c(N)c(C(=O)Nc4cccc(OC)c4)sc3nc2C)cc1 (stereo unspecified)
Reply: 25% (inactive)

Query: Give reported growth value for COc1cc2nc(-c3ccc(-c4nn[nH]n4)cc3)[nH]c(=O)c2cc1OC
Reply: 86.3% (inactive)

Query: Give reported growth value for COc1ccc(/C=C/C(=O)c2ccc(OC)c(OC)c2)cc1O
Reply: 63.9% (inactive)
